testedOn: human melanocortin 1 receptor (human, UniProt Q01726 1-317)
Sequence (Q01726 whole entry): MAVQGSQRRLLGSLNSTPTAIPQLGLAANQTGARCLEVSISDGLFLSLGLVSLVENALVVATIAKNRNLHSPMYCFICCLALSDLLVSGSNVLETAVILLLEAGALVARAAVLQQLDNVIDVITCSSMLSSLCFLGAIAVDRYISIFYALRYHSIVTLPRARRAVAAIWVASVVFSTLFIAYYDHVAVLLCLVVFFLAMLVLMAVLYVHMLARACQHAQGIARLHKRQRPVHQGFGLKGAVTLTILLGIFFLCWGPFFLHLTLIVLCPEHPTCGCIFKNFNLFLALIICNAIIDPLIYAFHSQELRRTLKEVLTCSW
procedureSummary: cell-based or functional assay
Positions of bridges follow the written chain, without caps; N, C: chain ends. Non-standard residues stand in square brackets, D forms with d. Cit = NC(=O)NCCC[C@H](N)C(=O)O; Thz = O=C(O)[C@@H]1CSCN1; GABA = NCCCC(=O)O
attributeMeasured: MC1R cAMP EC50

Task item: Return MC1R cAMP EC50 for the following binder: cyclo(CAH[dF][Cit]WCAEEEW) (disulfide 1-7; SMILES C[C@@H]1NC(=O)[C@@H]2CSSC[C@H](NC(=O)[C@H](Cc3c[nH]c4ccccc34)NC(=O)[C@H](CCCNC(N)=O)NC(=O)[C@@H](Cc3ccccc3)NC(=O)[C@H](Cc3c[nH]cn3)NC1=O)C(=O)N[C@@H](C)C(=O)N[C@@H](CCC(=O)O)C(=O)N[C@@H](CCC(=O)O)C(=O)N[C@@H](CCC(=O)O)C(=O)N[C@@H](Cc1c[nH]c3ccccc13)C(=O)N2, also called c[c[Cys-Ala-His-D-Phe-Cit-Trp-Cys]-Ala-Glu-Glu-Glu-Trp]) [Chem. 45]
Reply: > 100 nM

Task item: Return MC1R cAMP EC50 for the following binder: cyclo(C[GABA]H[dF]RWC[GABA]H[dF]RW) (disulfide 1-7; SMILES N=C(N)NCCC[C@@H]1NC(=O)[C@@H](Cc2ccccc2)NC(=O)[C@H](Cc2c[nH]cn2)NC(=O)CCCNC(=O)[C@@H]2CSSC[C@H](NC(=O)[C@H](Cc3c[nH]c4ccccc34)NC1=O)C(=O)NCCCC(=O)N[C@@H](Cc1c[nH]cn1)C(=O)N[C@H](Cc1ccccc1)C(=O)N[C@@H](CCCNC(=N)N)C(=O)N[C@@H](Cc1c[nH]c3ccccc13)C(=O)N2, also called c[c[Cys-GABA-His-D-Phe-Arg-Trp-Cys]-GABA-His-D-Phe-Arg-Trp]) [Chem. 35]
Reply: 0.28 nM

Task item: Return MC1R cAMP EC50 for the following binder: cyclo(C[Thz]H[dF]HWCAKKKW) (disulfide 1-7; SMILES C[C@@H]1NC(=O)[C@@H]2CSSC[C@H](NC(=O)[C@H](Cc3c[nH]c4ccccc34)NC(=O)[C@H](CCCCN)NC(=O)[C@H](CCCCN)NC(=O)[C@H](CCCCN)NC1=O)C(=O)N1CSC[C@H]1C(=O)N[C@@H](Cc1c[nH]cn1)C(=O)N[C@H](Cc1ccccc1)C(=O)N[C@@H](Cc1c[nH]cn1)C(=O)N[C@@H](Cc1c[nH]c3ccccc13)C(=O)N2, also called c[c[Cys-THAZ-His-D-Phe-His-Trp-Cys]-Ala-Lys-Lys-Lys-Trp]) [Chem. 81]
Reply: 67 nM

Task item: Return MC1R cAMP EC50 for the following binder: cyclo(AAH[dF]RWAAH[dF]RW) (SMILES C[C@@H]1NC(=O)[C@H](C)NC(=O)[C@H](Cc2c[nH]c3ccccc23)NC(=O)[C@H](CCCNC(=N)N)NC(=O)[C@@H](Cc2ccccc2)NC(=O)[C@H](Cc2c[nH]cn2)NC(=O)[C@H](C)NC(=O)[C@H](C)NC(=O)[C@H](Cc2c[nH]c3ccccc23)NC(=O)[C@H](CCCNC(=N)N)NC(=O)[C@@H](Cc2ccccc2)NC(=O)[C@H](Cc2c[nH]cn2)NC1=O, also called c[Ala-Ala-His-D-Phe-Arg-Trp-Ala-Ala-His-D-Phe-Arg-Trp]) [Chem. 7]
Reply: 4.56 nM
